Tested on: MCF7;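 further: secreted proteins added to cultured cells, EdU pulse at the end, nuclei found by Hoechst imaging, EdU status from nuclear versus surrounding ring intensity ratio, PBS as neutral control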
Protocol text: percentage of EdU-negative (G0-arrested) nuclei per well, 72 h; higher = more G0 arrest
Measurement context: protein concentration 0.225 µM; reference: sequence is the full UniProt precursor, the tested protein was the secreted form or ectodomain
Measured endpoint: percentage of EdU-negative (%)
Hi! Could you send only the number? It should be in %, unit omitted.

Here's what some known entries look like.
[[record]]
record_sequence = "MAFLPSWVCVLVGSFSASLAGTSNLSETEPPLWKESPGQLSDYRVENSMYIINPWVYLERMGMYKIILNQTARYFAKFAPDNEQNILWGLPLQYGWQYRTGRLADPTRRTNCGYESGDHMCISVDSWWADLNYFLSSLPFLAAVDSGVMGISSDQVRLLPPPKNERKFCYDVSSCRSSFPETMNKWNTFYQYLQSPFSKFDDLLKYLWAAHTSTLADNIKSFEDRYDYYSKAEAHFERSWVLAVDHLAAVLFPTTLIRSYKFQKGMPPRILLNTDVAPFISDFTAFQNVVLVLLNMLDNVDKSIGYLCTEKSNVYRDHSESSSRSYGNNS [Q6P5S2]"
display_unit = "%"
value_observed = 26.6

[[record]]
record_sequence = "MKITGGLLLLCTVVYFCSSSEAASLSPKKVDCSIYKKYPVVAIPCPITYLPVCGSDYITYGNECHLCTESLKSNGRVQFLHDGSC"
display_unit = "%"
value_observed = 24.5

[[record]]
record_sequence = "MGSGPRGALSLLLLLLAPPSRPAAGCPAPCSCAGTLVDCGRRGLTWASLPTAFPVDTTELVLTGNNLTALPPGLLDALPALRTAHLGANPWRCDCRLVPLRAWLAGRPERAPYRDLRCVAPPALRGRLLPYLAEDELRAACAPGPLCWGALAAQLALLGLGLLHALLLVLLLCRLRRLRARARARAAARLSLTDPLVAERAGTDES"
display_unit = "%"
value_observed = 27.2


-- ask Which percentage of EdU-negative value is on record for MASHSGPSTSVLFLFCCLGGWLASHTLPVRLLRPSDDVQKIVEELQSLSKMLLKDVEEEKGVLVSQNYTLPCLSPDAQPPNNIHSPAIRAYLKTIRQLDNKSVIDEIIEHLDKLIFQDAPETNISVPTDTHECKRFILTISQQFSECMDLALKSLTSGAQQATT [Q6EBC2] ?
-- reply 24.9

Entry source: the supplement of paper PMC11316812
